Reference for the values: ChEMBL document CHEMBL1129265

Molecular target: B2 bradykinin receptor (Homo sapiens, UniProt P30411)
Sequence (P30411 whole entry): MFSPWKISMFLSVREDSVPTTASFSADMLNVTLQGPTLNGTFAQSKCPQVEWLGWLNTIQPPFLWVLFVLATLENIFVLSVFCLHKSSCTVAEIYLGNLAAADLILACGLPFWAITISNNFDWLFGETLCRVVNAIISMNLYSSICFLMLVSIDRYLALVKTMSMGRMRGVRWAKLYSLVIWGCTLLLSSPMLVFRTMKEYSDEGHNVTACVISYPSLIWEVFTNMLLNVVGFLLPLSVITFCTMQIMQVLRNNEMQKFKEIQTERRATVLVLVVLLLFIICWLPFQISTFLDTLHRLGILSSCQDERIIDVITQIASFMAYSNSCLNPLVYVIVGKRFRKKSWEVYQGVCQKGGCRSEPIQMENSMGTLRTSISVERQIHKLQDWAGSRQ
observable: log10 of Ki (log10 of the value in nM)
Give log10 of Ki, with Ki taken in nM.

{"smiles text": "CC(=O)CN1CN(c2ccc(C)cc2)C2(CCN(C)CC2)C1=O", "observable": "log10 of Ki", "val": 0.80}

Request: Look up log10 of Ki: CCCN1CN(CC(C)=O)C(=O)C12CCN(C)CC2
Result: 1.43

Request: Look up log10 of Ki: CC(=O)CN1CN(c2ccccc2)C2(CCN(C)CC2)C1=O
Result: 0.89

Request: Look up log10 of Ki: CC(=O)CN1CN(CC2CCCCC2)C2(CCN(C)CC2)C1=O
Result: 0.83

Request: Look up log10 of Ki: CC(=O)CN1CN(C2CCCCC2)C2(CCN(C)CC2)C1=O
Result: -0.24
